system_under_test: human wild-type 5-HT2C (Homo sapiens, UniProt P28335)
Sequence (P28335 33-458): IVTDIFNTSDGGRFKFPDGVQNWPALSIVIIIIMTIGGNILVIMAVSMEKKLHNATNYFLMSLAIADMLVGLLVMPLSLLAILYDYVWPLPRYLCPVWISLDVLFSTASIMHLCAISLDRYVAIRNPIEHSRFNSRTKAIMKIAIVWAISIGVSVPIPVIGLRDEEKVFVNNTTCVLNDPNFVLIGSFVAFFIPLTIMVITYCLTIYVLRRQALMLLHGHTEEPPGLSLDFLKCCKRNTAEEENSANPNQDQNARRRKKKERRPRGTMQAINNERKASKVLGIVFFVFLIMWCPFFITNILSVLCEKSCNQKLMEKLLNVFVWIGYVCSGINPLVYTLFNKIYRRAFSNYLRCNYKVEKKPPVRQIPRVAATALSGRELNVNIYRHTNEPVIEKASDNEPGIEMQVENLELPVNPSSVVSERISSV
measurement_type: IC50 (nM)
Give the value, in units of nM, as a plain number.

QUERY: # IC50 lookup, item CN(C)[C@@H]1Cc2ccccc2[C@@H](c2cccc(-c3cccs3)c2)C1 (single isomer, unassigned)
RESULT: 251

---

system_under_test: H1R (Homo sapiens)
Construct: host or cells: CHO, transient
assay_explanation: Radioligand binding (competitive displacement and saturation), cell membranes
applied_conditions: pKi H1R, displacement of [^3H]mepyramine; mean of n independent experiments, ± SD where n ≥ 5
measurement_type: pKi
Hey, just a heads up that pKi is the negative log base 10 of the concentration in molar.

CN(C)C1Cc2ccccc2C(c2cccc(-c3ccccc3F)c2)C1 (single isomer, unassigned) | 8.75
CN(C)C1Cc2ccccc2C(c2cccc(-c3cccc(F)c3)c2)C1 (centres unmarked) | 7.31
CN(C)[C@@H]1Cc2ccccc2[C@@H](c2cccc(-c3ccncc3)c2)C1 (single isomer, unassigned) | 8.86

QUERY: Consider the compound CN(C)[C@@H]1Cc2ccccc2[C@H](c2cccc(-c3ccco3)c2)C1 (single isomer, unassigned) and give its measured pKi.
RESULT: 7.30

---

The compounds listed here are annotated with their pKi.
system_under_test: UniProtKB P41595
Sequence (P41595 whole entry): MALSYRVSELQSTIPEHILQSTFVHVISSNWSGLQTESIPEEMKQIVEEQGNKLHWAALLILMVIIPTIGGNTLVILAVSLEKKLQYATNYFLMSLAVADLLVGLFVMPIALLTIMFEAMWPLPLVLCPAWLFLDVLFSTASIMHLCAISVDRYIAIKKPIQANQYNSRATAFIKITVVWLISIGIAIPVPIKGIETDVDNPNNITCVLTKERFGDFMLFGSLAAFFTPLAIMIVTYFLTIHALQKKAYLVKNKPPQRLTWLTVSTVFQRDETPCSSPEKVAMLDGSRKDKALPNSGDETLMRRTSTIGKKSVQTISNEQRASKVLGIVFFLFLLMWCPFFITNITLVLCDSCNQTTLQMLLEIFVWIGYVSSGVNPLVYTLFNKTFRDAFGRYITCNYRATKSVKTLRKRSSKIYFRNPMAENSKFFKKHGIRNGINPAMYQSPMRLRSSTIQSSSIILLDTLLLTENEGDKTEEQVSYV
assay_explanation: biochemical
Interpret pKi as the negative base-10 log of the concentration measured in mol/L.

CN(C)[C@@H]1Cc2ccccc2[C@@H](c2cccc(-c3cccs3)c2)C1 (single isomer, unassigned) [(2S,4R)-2c] | 7.10
CN(C)[C@@H]1Cc2ccccc2[C@H](c2cccc(Cl)c2)C1 (single isomer, unassigned) [(2S,4S)-3b] | 6.41
CN(C)C1Cc2ccccc2C(c2cccc(-c3ccccc3F)c2)C1 (single isomer, unassigned) [(2S,4R)-2g] | 7.09

QUERY: Reported pKi for CN(C)C1Cc2ccccc2C(c2cccc(-c3ccccc3F)c2)C1 (single isomer, unassigned) [(2R,4S)-2g] : what is it?
RESULT: 7.36

QUERY: Also CN(C)[C@@H]1Cc2ccccc2[C@H](c2cccc(Br)c2)C1 (single isomer, unassigned) [(2R,4R)-3a] , if possible.
RESULT: 7.07

QUERY: Would you kindly repeat that for CN(C)[C@@H]1Cc2ccccc2[C@H](c2cccc(Br)c2)C1 (single isomer, unassigned) [(2S,4S)-3a] ?
RESULT: 6.41

QUERY: Now consider CN(C)[C@@H]1Cc2ccccc2[C@H](c2cccc(F)c2)C1 (single isomer, unassigned) [(2S,4S)-3b′] .
RESULT: 6.04

---

Measured Ki, listed per entry for reference.
system_under_test: α1A-adrenergic receptor (Homo sapiens)
Sequence (P35348 whole entry): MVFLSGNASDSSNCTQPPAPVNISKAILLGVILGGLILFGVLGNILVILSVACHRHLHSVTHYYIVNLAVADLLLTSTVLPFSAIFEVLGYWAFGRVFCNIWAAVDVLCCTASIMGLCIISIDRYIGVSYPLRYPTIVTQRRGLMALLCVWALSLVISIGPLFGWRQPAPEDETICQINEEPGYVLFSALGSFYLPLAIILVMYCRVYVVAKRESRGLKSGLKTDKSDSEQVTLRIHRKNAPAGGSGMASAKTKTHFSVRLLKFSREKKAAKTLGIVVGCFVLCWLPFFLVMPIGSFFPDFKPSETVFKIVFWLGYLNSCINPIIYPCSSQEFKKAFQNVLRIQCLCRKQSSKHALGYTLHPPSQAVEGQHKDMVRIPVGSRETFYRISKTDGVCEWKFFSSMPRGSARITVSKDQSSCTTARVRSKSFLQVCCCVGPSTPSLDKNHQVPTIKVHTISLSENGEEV
Hi! Could you send only the number? It should be in nM, unit omitted.

QUERY: What value of Ki has been recorded for this entry: CN(C)[C@@H]1Cc2ccccc2[C@H](c2cccc(-c3cccc(F)c3)c2)C1 (single isomer, unassigned)
RESULT: 741

QUERY: Let us now turn to CN(C)c1ccc(-c2cccc([C@H]3C[C@H](N(C)C)Cc4ccccc43)c2)cc1
RESULT: 617

---

system_under_test: H1R (Homo sapiens, UniProt P35367)
Construct: host or cells: CHO, transient
Sequence (P35367 whole entry): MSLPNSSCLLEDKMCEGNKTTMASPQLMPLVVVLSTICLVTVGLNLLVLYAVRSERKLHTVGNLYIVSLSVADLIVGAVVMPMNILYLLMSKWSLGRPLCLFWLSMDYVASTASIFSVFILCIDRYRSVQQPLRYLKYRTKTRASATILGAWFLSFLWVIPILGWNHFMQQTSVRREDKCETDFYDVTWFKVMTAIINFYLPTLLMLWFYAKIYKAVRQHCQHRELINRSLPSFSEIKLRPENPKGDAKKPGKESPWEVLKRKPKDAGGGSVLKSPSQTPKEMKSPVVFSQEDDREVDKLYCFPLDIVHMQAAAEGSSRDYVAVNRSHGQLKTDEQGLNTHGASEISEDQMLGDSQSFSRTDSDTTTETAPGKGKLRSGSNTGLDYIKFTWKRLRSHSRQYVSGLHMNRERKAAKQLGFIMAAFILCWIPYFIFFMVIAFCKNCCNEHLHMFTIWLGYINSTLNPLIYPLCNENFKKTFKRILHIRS
assay_explanation: Radioligand binding (competitive displacement and saturation), cell membranes
Description: Transfections were performed for 48 hours.
measurement_type: pKi H1R

QUERY: Need pKi H1R of CN(C)[C@H]1Cc2ccccc2[C@H](c2cccc(-c3cccs3)c2)C1 , thanks.
RESULT: 6.90
